- Tested on: ragweed (common ragweed, Ambrosia elatior)
- Test method notes: Test B pre-/postemergence plant response
- Assay type: in vivo
- Protocol conditions: Preemergence, 62 g ai/ha; scale 0 to 100 (0 no effect, 100 complete control)
Property: Plant response rating, Ragweed
When you answer, write just the number.

{"Molecule": "COc1ccc(-n2c(-c3ccccc3)ncc(C(=O)C3=C(O)CCCC3=O)c2=O)cc1OC", "System tested": "ragweed (common ragweed, Ambrosia elatior)", "Data value": 95}
{"Molecule": "CCCc1ncc(C(=O)C2=C(O)CCCC2=O)c(=O)n1CC1CCCO1 (stereo not drawn)", "System tested": "ragweed (common ragweed, Ambrosia elatior)", "Data value": 98}
{"Molecule": "O=C1CCCC(O)=C1C(=O)c1cnc(-c2ccccc2)n(-c2ccccc2F)c1=O", "System tested": "ragweed (common ragweed, Ambrosia elatior)", "Data value": 85}
{"Molecule": "CCc1ccc(-n2c(-c3ccccc3)ncc(C(=O)C3=C(O)CCCC3=O)c2=O)cc1", "System tested": "ragweed (common ragweed, Ambrosia elatior)", "Data value": 75}

I'd like to know its Plant response rating, Ragweed. The molecule in question is "Cc1cc(-n2c(-c3ccccc3)ncc(C(=O)C3=C(O)CCCC3=O)c2=O)ccc1F"
75

Which Plant response rating, Ragweed value is on record for "O=C1CCCC(O)=C1C(=O)c1cnc(-c2cccc(Cl)c2)n(-c2ccc(Cl)cc2)c1=O" ?
50
